The values you see were collected from patent US20160046610A1.

System: HeLa cell line
Experiment: Proliferation assay (HeLa cell line), crystal violet staining
Format: cell-based
Conditions: Homo sapiens, HeLa, 96 h, read-out: Biological Assay 2: Proliferation assay (HeLa cell line) median IC50
Observation Type: pIC50
Field pIC50 (float): negative decimal logarithm of the concentration in molar.

- Compound: "CCOc1cc(F)c(Cn2nc(-c3ncc(OC)c(Nc4ccc(O)cc4)n3)c3ccccc32)c(F)c1 [Example 2-4-1]"
  pIC50: 5.16
- Compound: "COc1ccc(Cn2nc(-c3ncc(OC)c(Nc4cccnc4)n3)c3ccccc32)cc1 [Example 2-1-3]"
  pIC50: 5.44
- Compound: "COc1ccc(Cn2nc(-c3ncc(OC)c(Nc4cn[nH]c4)n3)c3ccccc32)cc1 [Example 2-10-1]"
  pIC50: 5.47
- Compound: "CCOc1cc(F)c(Cn2nc(-c3ncc(OC)c(Nc4ccc(F)cc4C(=O)NC)n3)c3ccccc32)c(F)c1 [Example 2-12-3]"
  pIC50: 5.92
- Compound: "CCOc1cc(F)c(Cn2nc(-c3cc(Nc4cn[nH]c4)ccn3)c3ccccc32)c(F)c1 [Example 2-7-1]"
  pIC50: 5.62

Sample CCOc1cc(F)c(Cn2nc(-c3ncc(OC)c(Nc4ccccc4C(=O)NC)n3)c3ccccc32)c(F)c1 [Example 2-12-2] ; pIC50 observed: 5.96

---

Molecular target: catalytic domain of human Bub1 (amino acids 704-1085) (Homo sapiens, UniProt O43683)
Construct: catalytic domain of human Bub1 (amino acids 704-1085); His6 (N); made in house; host or cells: Hi5 insect cells
Sequence (O43683 704-1085): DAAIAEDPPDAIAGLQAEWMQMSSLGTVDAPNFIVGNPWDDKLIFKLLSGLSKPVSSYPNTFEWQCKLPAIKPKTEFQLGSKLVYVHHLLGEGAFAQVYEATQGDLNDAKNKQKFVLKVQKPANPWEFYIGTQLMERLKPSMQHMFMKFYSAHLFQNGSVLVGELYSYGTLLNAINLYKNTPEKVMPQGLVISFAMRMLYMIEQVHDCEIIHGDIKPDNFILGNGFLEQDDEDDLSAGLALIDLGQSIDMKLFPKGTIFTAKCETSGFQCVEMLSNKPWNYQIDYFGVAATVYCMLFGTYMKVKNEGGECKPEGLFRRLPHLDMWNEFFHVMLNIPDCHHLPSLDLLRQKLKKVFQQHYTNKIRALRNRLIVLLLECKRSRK
Assay: Bub1 kinase assay (TR-FRET)
Format: biochemical
Listed here: items and their measured pIC50.
Field pIC50 (float): negative decimal logarithm of the concentration in molar.

Record summary for CCCc1ccc(Cn2nc(-c3cc(Nc4ccncn4)ccn3)c3ccccc32)cc1 : reported pIC50 = 7.55

Per the record, Fc1ccc(Cn2nc(-c3cc(Nc4ccncn4)ccn3)c3ccccc32)c(F)c1 has pIC50 of 7.18

Entry under test: CCOc1cc(F)c(Cn2nc(-c3ncc(OC)c(Nc4ccc(F)cc4C(=O)O)n3)c3ccccc32)c(F)c1 . Its pIC50 was 6.74

// field: pIC50; key: Cn1cc(Nc2ccnc(-c3nn(Cc4ccccc4F)c4ccccc34)c2)cn1 ; value = 4.77

The reported pIC50 of the compound Fc1cccc(F)c1Cn1nc(-c2cc(Nc3ccncn3)ccn2)c2ccccc21 was 7.89

GET /value?item= COc1ccc(Cn2nc(-c3ncc(OC)c(Nc4cn[nH]c4)n3)c3ccccc32)cc1 &field=pIC50 returns 7.70

Lab note: CCOc1cc(F)c(Cn2nc(-c3ncc(OC)c(Nc4ccccc4C(=O)O)n3)c3ccccc32)c(F)c1 gave pIC50 of 6.54

Reported pIC50 of CCOc1cc(F)c(Cn2nc(-c3cc(Nc4ccncn4)ccn3)c3cnccc32)c(F)c1 : 6.66
